Molecular target: T1, Mouse Fc-human GDF15 (Mu IgG1Fc_Fxa_Hu GDF15) (human)
T1 construct: Whole entry is the fusion: mouse IgG1 Fc, FXa site and linker, mature human GDF15; described as dimeric; also called Murine dimeric IgG1 Fc-human GDF-15 with FXa cleavage site; control human GDF15
T1 chain: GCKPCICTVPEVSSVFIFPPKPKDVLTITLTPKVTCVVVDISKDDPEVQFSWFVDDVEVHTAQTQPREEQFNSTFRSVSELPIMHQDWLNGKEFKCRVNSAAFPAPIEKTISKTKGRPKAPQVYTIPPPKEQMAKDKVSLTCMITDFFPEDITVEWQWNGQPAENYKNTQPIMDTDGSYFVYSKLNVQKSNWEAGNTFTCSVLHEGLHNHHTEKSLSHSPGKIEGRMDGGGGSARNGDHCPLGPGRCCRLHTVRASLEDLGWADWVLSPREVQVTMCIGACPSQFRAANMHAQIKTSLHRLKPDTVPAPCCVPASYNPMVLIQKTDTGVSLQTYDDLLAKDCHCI
Experiment: SPR BIAcore T200, 37C; Fc-GDF15 captured, IgG as analyte; average of runs
observed-property: koff (s⁻¹)
Answer format: numeric, s⁻¹ implied, no suffix.

Request the reported koff associated with GDF15_022 (antibody, human IgG1, kappa, V domains shown, Tested in bivalent format) VH: QVQLVQSGAEVKKPGSSVKVSCKASGYTFSDYNIDWVRQAPGQGLEWMGQINPNNGLIFFNQKFQGRVTITADESTSTAYMELSSLRSEDTAVYYCAREVITTVGAMDYWGQGTLVTVSS VL: EIVLTQSPATLSLSPGERATLSCRTSQSVHSYLAWYQQKPGQAPRLLIYDAKTRADGIPARFSGSGSGTDFTLTISSLEPEDFAVYYCQQFSSDPYTFGQGTKVEIKR 1.61e-05

These data points were gathered from patent US20260159579A1.
